System: stress ulcer
Assay: Stress ulcer (restraint and water immersion)
Assay type: in vivo, male Wistar rats
Settings: Rattus norvegicus, po, 7 h, concentration of 1×10^-3 mole, read-out: Inhibitory ratio of stress ulcer
property_name: inhibition in vivo

{"compound": "Cc1nnc(SC(C)CCSc2nnnn2C)o1 (stereo not drawn) [Test compound 42]", "tested_system": "stress ulcer", "inhibition in vivo": "> 60%"}

// switching to the query compound
For Cn1nnnc1SCCCC(=O)Cc1ccccc1 [Test compound 57] on stress ulcer, measured inhibition in vivo was > 60%

---

Tested on: stress ulcer
Assay: Stress ulcer (restraint and water immersion)
Assay type: in vivo, male Wistar rats
Conditions: Rattus norvegicus, po, 7 h, concentration of 1×10^-3 mole, read-out: Inhibitory ratio of stress ulcer
property_name: inhibition in vivo

# count of solved cases: 5
{"molecule": "CC(CC[S+]([O-])c1nnnn1C)Sc1nnnn1C (stereo not shown) [Test compound 49]", "tested_system": "stress ulcer", "inhibition in vivo": "> 60%"}
{"molecule": "Cn1nnnc1SCCCC(=O)c1ccco1 [Test compound 55]", "tested_system": "stress ulcer", "inhibition in vivo": "30 to 60%"}
{"molecule": "Cc1ncsc1C(=O)CCCSc1nnnn1C [Test compound 80]", "tested_system": "stress ulcer", "inhibition in vivo": "> 60%"}
{"molecule": "Cn1nnnc1SCCCC(=O)c1ccccn1 [Test compound 74]", "tested_system": "stress ulcer", "inhibition in vivo": "> 60%"}
{"molecule": "Cn1nnnc1SCCCSc1ccc([N+](=O)[O-])cn1 [Test compound 40]", "tested_system": "stress ulcer", "inhibition in vivo": "> 60%"}

Entry Cn1nnnc1SCCCSCc1csc(N)n1 [Test compound 17] under stress ulcer had inhibition in vivo of > 60%

// assay stress ulcer, entry Cn1nnnc1[S+]([O-])CCCCSc1ccccn1 (stereo not shown) [Test compound 45] , inhibition in vivo value = > 60%

Lab entry: stress ulcer assay, molecule COc1ccc(CCNC(=O)CCCn2nnnc2C)cc1OC [Test compound 114] , inhibition in vivo = 30 to 60%

inhibition in vivo value, target or system stress ulcer, for Cn1nnnc1SCCCNC(=O)c1ccccc1 [Test compound 88] : > 60%

Assay stress ulcer, sample CCN(CC)C(=O)CCCn1nnnc1C [Test compound 105] , inhibition in vivo read: > 60%

---

Test system: gastric juice secretion
Assay: Shay rat pylorus ligation method (gastric juice secretion-inhibiting activity)
Assay type: in vivo, male Wistar rats
Conditions: Rattus norvegicus, 4 h, 100 mg/kg, duodenal route, 4 hours after ligation; read-out: Inhibitory ratio, pepsin activity
property_name: inhibition in vivo at 100 mg/kg

Some molecules with recorded inhibition in vivo at 100 mg/kg:
{"smiles_string": "Cn1nnnc1SCCCNC(=O)C1CCCCC1", "value_measured": "10 to 50%"}
{"smiles_string": "Cn1nnnc1SCCCC(=O)Cc1ccccc1", "value_measured": "10 to 50%"}
{"smiles_string": "CCN(CC)CCCSc1nnnn1C", "value_measured": "10 to 50%"}

Field: next molecule
Form: molecule = `Cn1nnnc1SCCCC(=O)c1ccco1` ; inhibition in vivo at 100 mg/kg = 10 to 50%

---

Test system: stress ulcer
Experiment: Stress ulcer (restraint and water immersion)
Type: in vivo, male Wistar rats
Details: Rattus norvegicus, po, 7 h, concentration of 1×10^-3 mole, read-out: Inhibitory ratio of stress ulcer
Reported inhibition in vivo values for a set of compounds

The following compounds have reported results that may help.
{"compound": "CCN(CC)CCCSc1nnnn1C", "tested_system": "stress ulcer", "inhibition in vivo": "> 60%"}
{"compound": "Cn1nnnc1SCCCC[S+]([O-])c1nnnn1C (stereo not shown)", "tested_system": "stress ulcer", "inhibition in vivo": "> 60%"}
{"compound": "Cc1nnnn1CCCC(=O)N1CCOCC1", "tested_system": "stress ulcer", "inhibition in vivo": "30 to 60%"}

Now for the compound whose inhibition in vivo we want.
Note to self: inhibition in vivo of `CCSCCCSc1nnnn1C` with stress ulcer was > 60%
